- Assay Overview: Plasma protein binding, equilibrium dialysis, human plasma
- Format: in vitro ADME
- Assay Conditions: pH 7.4, equilibrium dialysis (RED) 4 hours at 37° C., read-out: Plasma protein binding, fu, Human
Readout: fraction unbound at 4 h, 10 μM

Please review the entries below; each comes with its answer.
Molecule: C[C@@H](c1cccc2c(-c3c(F)cc(NS(C)(=O)=O)cc3F)c(C(=O)O)[nH]c12)n1cc(CN2CC(N)C2)oc1=O
fraction unbound at 4 h, 10 μM: 0.05 to 0.25

Molecule: C[C@@H](c1cccc2c(-c3cc[nH]c(=O)c3)c(C(=O)O)[nH]c12)n1cc(CN2CC(N)C2)oc1=O
fraction unbound at 4 h, 10 μM: > 0.25

Molecule: COc1cc(-c2c(C(=O)O)[nH]c3c([C@H](C)N4C[C@]5(C[C@@H](CN)C5)OC4=O)cccc23)ccn1
fraction unbound at 4 h, 10 μM: 0.05 to 0.25

Molecule: C[C@@H](c1cccc2c(-c3ccc(N)nc3)c(C(=O)O)[nH]c12)N1C[C@]2(C[C@@H](CN)C2)OC1=O
fraction unbound at 4 h, 10 μM: 0.05 to 0.25

Molecule: C[C@@H](c1cccc2c(-c3ccc4c(c3)CNC4=O)c(C(=O)O)[nH]c12)N1C[C@]2(C[C@@H](CN)C2)OC1=O
fraction unbound at 4 h, 10 μM: 0.05 to 0.25

Given the molecule CC(C)c1cccc2c(-c3cc(Cl)cc(Cl)c3)c(C(=O)O)[nH]c12 [Prior Art Compound 76, reference compound] , what is its reported fraction unbound at 4 h, 10 μM? < 0.005

* * *

- Assay Overview: Metabolic stability in mouse hepatocytes
- Format: in vitro ADME
- Assay Conditions: cryopreserved mouse hepatocytes, 1 μM compound, 37° C., up to 90 min, read-out: Metabolic stability in hepatocytes, in vitro t1/2, Mouse
- Experimental: Metabolic stability assays were performed in cryopreserved human and mouse hepatocytes. The hepatocytes were thawed and added to “Thawing media”, and centrifuged to pellet the hepatocytes. The cell pellet was taken up in Williams medium E (Invitrogen A1217601), the number of cells was calculated and adjusted to 1.0×10^6 cells/mi. The incubation was carried out on a heater-shaker at […], in a 24-well Picoplate (round bottom, PerkinElmer), using an incubation volume of 770 μl. […]
Readout: half-life at 1 μM

Past entries and their recorded results:
Compound: C[C@@H](c1cccc2c(-c3ccc(NS(C)(=O)=O)c(C#N)c3)c(C(=O)O)[nH]c12)N1C[C@]2(C[C@@H](CN)C2)OC1=O
Result: > 6.67 h
//
Compound: C[C@@H](OCc1ccc(CN)cc1)c1cccc2c(-c3ccc(CS(C)(=O)=O)c(Cl)c3)c(C(=O)O)[nH]c12 (single isomer, unassigned)
Result: < 2.5 h
//
Compound: COc1cc(-c2c(C(=O)O)[nH]c3c([C@H](C)n4cc(CN5CC(N)C5)oc4=O)cccc23)ccn1
Result: < 2.5 h
//
Compound: C[C@@H](c1cccc2c(-c3ccc(NS(C)(=O)=O)c(F)c3)c(C(=O)O)[nH]c12)n1cc(CN2CC(N)C2)oc1=O
Result: < 2.5 h
//
Compound: CC(OC(=O)N1CCC(CN)CC1)c1cccc2c(-c3ccc(CS(C)(=O)=O)c(F)c3)c(C(=O)O)[nH]c12 (stereo not drawn)
Result: > 6.67 h

// returns reported half-life at 1 μM for input C[C@@H](c1cccc2c(-c3ccc(NS(C)(=O)=O)c(F)c3)c(C(=O)O)[nH]c12)N1C[C@]2(C[C@@H](CN)C2)OC1=O 2.5 to 6.67 h

# half-life at 1 μM lookup, item C[C@@H](c1cccc2c(-c3ccc(CS(C)(=O)=O)c(F)c3)c(C(=O)O)[nH]c12)N1CC2(CCC(N)CC2)OC1=O (stereo partly drawn) 2.5 to 6.67 h

Which value of half-life at 1 μM has been reported for CC(c1cccc2c(-c3ccc(CS(C)(=O)=O)c(F)c3)c(C(=O)O)[nH]c12)n1cc(CCC2(N)CC2)oc1=O (stereo not drawn) in the records? < 2.5 h

Need half-life at 1 μM, item C[C@H](OCc1ccc(CN)cc1)c1cccc2c(-c3ccc(CS(C)(=O)=O)c(Cl)c3)c(C(=O)O)[nH]c12 (single isomer, unassigned) < 2.5 h
